test: Compound was tested for neurotoxic activity in male mice using rotarod test.; format: ADME; conditions: mouse, in vivo
Overview of reported TD50 across a group of molecules:
Report the figure in mg/kg without appending any unit label.

Consider the molecule "CN1C(=O)CC[C@@H](NC(=O)OCc2ccccc2)C1=O" and give its measured TD50.
120

Recorded TD50 for "CN1C(=O)C[C@@H](NC(=O)OCc2ccccc2)C1=O" , please?
167

Entry "O=C1C[C@H](NC(=O)OCc2ccccc2)C(=O)N1" : reported TD50 = ?
161

Param item = "O=C1CC[C@H](NC(=O)OCc2ccccc2)C(=O)N1" ; retrieve measured TD50.
130

Sample CN1C(=O)CC(C)(c2ccccc2)C1=O (stereo not given) [METHSUXIMIDE] — what was its TD50?
130

Look at this molecule and give its reported TD50. "CN1C(=O)OC(C)(C)C1=O"
1070

Give its TD50 value. Item: "O=C1CC[C@@H](NC(=O)OCc2ccccc2)C(=O)N1"
122

Requested read-out: TD50. Entry: "CN1C(=O)CC[C@H](NC(=O)OCc2ccccc2)C1=O"
62.5

Requested field: TD50. Item: "O=C1C[C@@H](NC(=O)OCc2ccccc2)C(=O)N1"
178

Consider the molecule "CN1C(=O)C[C@H](NC(=O)OCc2ccccc2)C1=O" and give its measured TD50.
118

Origin of values: ChEMBL document CHEMBL1129697
